Where do these numbers come from? They come from ChEMBL document CHEMBL1144265.

Here the recorded pKa is given for each entry.
procedure-text: In vitro PKa value was determined
Format: physicochemical
experimental-readout: pKa

O=[N+]([O-])c1ccc(Nc2nc(NC3CCCCCC3)nc(NC3CCCCCC3)n2)cc1	2.64
O=[N+]([O-])c1ccc(Nc2nc(N3CCCC3)nc(N3CCCC3)n2)cc1	3.62
CC(C)(C)Nc1nc(Nc2ccc([N+](=O)[O-])cc2)nc(NC(C)(C)C)n1	3.68
O=[N+]([O-])c1ccc(Nc2nc(NCCCn3ccnc3)nc(NCCCn3ccnc3)n2)cc1	1.96
O=[N+]([O-])c1ccc(Nc2nc(NCCO)nc(NCCO)n2)cc1	2.86

###

System: Plasmodium falciparum
procedure-text: In vitro minimum inhibiting concentration for schizont maturation from ring stage parasite over 40 hrs
Assay type: functional
Exam item: assign Y to entries whose MIC is below 10 µg/mL and N to entries at or above 10 µg/mL. Note that a value of exactly 10 µg/mL receives N.

O=[N+]([O-])c1ccc(Nc2nc(NC3CCCCCC3)nc(NC3CCCCCC3)n2)cc1	Y
O=[N+]([O-])c1ccc(Nc2nc(NC3CCCCC3)nc(NC3CCCCC3)n2)cc1	Y
CC1(C)N=C(N)N=C(N)N1c1ccc(Cl)cc1	N
O=[N+]([O-])c1ccc(Nc2nc(N3CCCC3)nc(N3CCCC3)n2)cc1	N
CN1CCN(c2nc(Nc3ccc([N+](=O)[O-])cc3)nc(N3CCN(C)CC3)n2)CC1	Y
O=[N+]([O-])c1ccc(Nc2nc(N3CCN(Cc4ccccc4)CC3)nc(N3CCN(Cc4ccccc4)CC3)n2)cc1	Y
CC(C)(C)Nc1nc(Nc2ccc([N+](=O)[O-])cc2)nc(NC(C)(C)C)n1	N
O=[N+]([O-])c1ccc(Nc2nc(NCCCn3ccnc3)nc(NCCCn3ccnc3)n2)cc1	Y
O=[N+]([O-])c1ccc(Nc2nc(NCCO)nc(NCCO)n2)cc1	N
CCCCNc1nc(NCCCC)nc(Nc2ccc([N+](=O)[O-])cc2)n1	Y
O=[N+]([O-])c1ccc(Nc2nc(N3CCCCC3)nc(N3CCCCC3)n2)cc1	N

###

procedure-text: In vitro PKa value was determined
Assay type: physicochemical
Please note: Yes applies when pKa is 3 or greater, and No applies otherwise.

O=[N+]([O-])c1ccc(Nc2nc(N3CCN(Cc4ccccc4)CC3)nc(N3CCN(Cc4ccccc4)CC3)n2)cc1	No
CCCCNc1nc(NCCCC)nc(Nc2ccc([N+](=O)[O-])cc2)n1	No
O=[N+]([O-])c1ccc(Nc2nc(N3CCN(c4ccccc4)CC3)nc(N3CCN(c4ccccc4)CC3)n2)cc1	No
O=[N+]([O-])c1ccc(Nc2nc(NC3CCCCC3)nc(NC3CCCCC3)n2)cc1	No
O=[N+]([O-])c1ccc(Nc2nc(Nc3cccc(F)c3)nc(Nc3cccc(F)c3)n2)cc1	Yes
O=[N+]([O-])c1ccc(Nc2nc(NCc3ccccc3)nc(NCc3ccccc3)n2)cc1	No
CN1CCN(c2nc(Nc3ccc([N+](=O)[O-])cc3)nc(N3CCN(C)CC3)n2)CC1	No
CC1(C)N=C(N)N=C(N)N1c1ccc(Cl)cc1 [CYCLOGUANIL]	Yes
O=[N+]([O-])c1ccc(Nc2nc(N3CCCCC3)nc(N3CCCCC3)n2)cc1	Yes

###

procedure-text: In vitro PKa value was determined
Type: physicochemical
experimental-readout: pKa

CCN(CC)c1nc(Nc2ccc([N+](=O)[O-])cc2)nc(N(CC)CC)n1	3.05
O=[N+]([O-])c1ccc(Nc2nc(N3CCc4cccnc4C3)nc(N3CCc4cccnc4C3)n2)cc1	2.94
O=[N+]([O-])c1ccc(Nc2nc(N3CCOCC3)nc(N3CCOCC3)n2)cc1	2.98
